# System: H3255
# Assay Text: MTT cell viability, H3255
# Format: cell-based
# Condition: Homo sapiens, NCI-H3255, 96 h, Adenocarcinoma lung cell line H3255; 4 days incubation
Assay Readout: pIC50
The value called pIC50 is obtained by taking minus log10 of the concentration in mol/L.

Any idea what pIC50 was measured for `C[C@H](C(=O)N[C@@H](Cc1ccc(-c2ccccc2)cc1)C(=O)NC1CC(C)(C)NC(C)(C)C1)c1ccc(-c2ccccc2)c(F)c1` ?
6.04

----------
# Assay Text: Solubility of flurbiprofen analog compounds
# Type: physicochemical
# Condition: medium in which the compound is soluble, Table 5
Solubility listing for selected compounds.
Output should be the measured figure followed by the unit it is expressed in.

As a guide, the following entries are already answered.
{"Compound": "CC(C(=O)N[C@@H](Cc1ccc(OCc2c(Cl)cccc2Cl)cc1)C(=O)NC1CC(C)(C)NC(C)(C)C1)c1ccc(-c2ccccc2)c(F)c1 (some centres unmarked) [GCBH-112]", "Measured Result": "50% DMSO"}
{"Compound": "C[C@H](C(=O)N[C@@H](Cc1ccc(N(CCCl)CCCl)cc1)C(=O)NC1CC(C)(C)NC(C)(C)C1)c1ccc(-c2ccccc2)c(F)c1", "Measured Result": "20% DMSO"}
{"Compound": "C[C@H](C(=O)N[C@@H](Cc1ccc(-c2ccccc2)cc1)C(=O)NC1CC(C)(C)NC(C)(C)C1)c1ccc(-c2ccccc2)c(F)c1", "Measured Result": "50% DMSO"}
{"Compound": "CC(C(=O)N[C@@H](Cc1ccc(OCc2c(Cl)cccc2Cl)cc1)C(=O)NC1CC(C)(C)NC(C)(C)C1)c1ccc(-c2ccccc2)c(F)c1 (some centres unmarked) [GCBH-100]", "Measured Result": "50% DMSO"}
{"Compound": "CC(C(=O)N[C@@H](Cc1ccc(OCc2c(Cl)cccc2Cl)cc1)C(=O)NCCCN1CCN(C)CC1)c1ccc(-c2ccccc2)c(F)c1 (some centres unmarked)", "Measured Result": "20% DMSO"}
{"Compound": "CC(C(=O)N[C@@H](Cc1csc2ccccc12)C(=O)NC1CC(C)(C)NC(C)(C)C1)c1ccc(-c2ccccc2)c(F)c1 (some centres unmarked)", "Measured Result": "50% DMSO"}
{"Compound": "C[C@H](C(=O)NC(CC(=O)NC1CC(C)(C)NC(C)(C)C1)c1ccc(-c2ccccc2)cc1)c1ccc(-c2ccccc2)c(F)c1 (some centres unmarked)", "Measured Result": "50% DMSO"}
{"Compound": "CC(C(=O)N[C@H](C(=O)NC1CC(C)(C)NC(C)(C)C1)C(c1ccccc1)c1ccccc1)c1ccc(-c2ccccc2)c(F)c1 (some centres unmarked)", "Measured Result": "50% DMSO"}

Any idea what Solubility was measured for `C[C@H](C(=O)N[C@@H](Cc1ccc(C(F)(F)F)cc1)C(=O)NC1CC(C)(C)NC(C)(C)C1)c1ccc(-c2ccccc2)c(F)c1` ?
50% DMSO

Any idea what Solubility was measured for CC(C(=O)N[C@@H](CC1CCCCC1)C(=O)NC1CC(C)(C)NC(C)(C)C1)c1ccc(-c2ccccc2)c(F)c1 (some centres unmarked) ?
20% DMSO

Any idea what Solubility was measured for `C[C@H](C(=O)N[C@@H](Cc1ccc(F)cc1)C(=O)NC1CC(C)(C)NC(C)(C)C1)c1ccc(-c2ccccc2)c(F)c1` ?
20% DMSO
